# target-or-test-system: IL-17A(FLAG-Tagged): IL-17RA(His-Tagged) (Homo sapiens, UniProt Q16552, K93Q)
# Sequence (Q16552 with tags, fused parts or gaps K93Q): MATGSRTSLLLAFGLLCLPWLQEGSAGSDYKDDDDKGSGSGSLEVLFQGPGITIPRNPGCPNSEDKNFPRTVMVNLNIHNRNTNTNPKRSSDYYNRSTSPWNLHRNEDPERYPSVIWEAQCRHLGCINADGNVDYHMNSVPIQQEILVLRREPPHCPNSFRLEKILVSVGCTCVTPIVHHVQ
# measurement-description: IL-17A(FLAG-Tagged): IL-17RA(His-Tagged) Binding Disruption Eu-HTRF Assay, Protocol 1
# measurement-conditions: Protocol 1, FLAG tagged IL-17A 2.5 nM; simple average if tested more than once
pIC50: −log10 of the molar value.
endpoint-name: pIC50

[
  {
    "compound": "CC(C)n1ncc(F)c1C(=O)N[C@@H](COC(C)(C)C(F)(F)F)c1nc2cc([C@@H](C3CC3)N3C[C@@H](C(F)(F)F)NC3=O)ccc2[nH]1",
    "pIC50": "> 7.30"
  },
  {
    "compound": "COC[C@H](c1ccc2[nH]c(C(COC(C)(C)C(F)(F)F)NC(=O)c3ncnn3C(C)C)nc2c1)N1CC(F)(F)CNC1=O (single isomer, unassigned)",
    "pIC50": "> 7.30"
  },
  {
    "compound": "COC[C@H](c1ccc2[nH]c(C(COC(C)(C)C(F)(F)F)NC(=O)c3nonc3C3CC3)nc2c1)N1CC(F)(F)CNC1=O (single isomer, unassigned)",
    "pIC50": "> 7.30"
  },
  {
    "compound": "[2H]C([2H])([2H])C([2H])([2H])n1nccc1C(=O)N[C@@H](COC(C)(C)C(F)(F)F)c1nc2cc([C@@H](C3CC3)N3C[C@@H](C(F)(F)F)NC3=O)ccc2[nH]1",
    "pIC50": "> 7.30"
  },
  {
    "compound": "CC(C)(OC[C@@H](NC(=O)c1nonc1C1CC1)c1nc2cc(CN3C[C@@H](C(F)(F)F)NC3=O)ccc2[nH]1)C(F)(F)F (single isomer, unassigned)",
    "pIC50": "< 7.00"
  }
]

[Q] Give the measured pIC50 of COCC(c1ccc2[nH]c([C@H](COC(C)(C)C(F)(F)F)NC(=O)c3nonc3C)nc2c1)N1CC(C)(C)NC1=O (single isomer, unassigned) [Example 48] .
[A] > 7.30

[Q] Give the measured pIC50 of `Cc1nonc1C(=O)N[C@@H](COC(C)(C)C(F)(F)F)c1nc2ccc(CN3CC(F)(F)CNC3=O)cc2[nH]1` .
[A] > 7.30

[Q] Give the measured pIC50 of CC(C)(OC[C@H](NC(=O)c1nonc1C1CC1)c1nc2cc(CN3C[C@](C)(C(F)(F)F)NC3=O)ccc2[nH]1)C(F)(F)F (relative stereo) .
[A] > 7.30

###

# target-or-test-system: IL-17A(FLAG-Tagged): IL-17RA(His-Tagged) (Homo sapiens, UniProt Q16552, K93Q)
# measurement-description: IL-17A(FLAG-Tagged): IL-17RA(His-Tagged) Binding Disruption Eu-HTRF Assay, Protocol 2
# measurement-conditions: Protocol 2, FLAG tagged IL-17A 1 nM; simple average if tested more than once
pIC50: −log10 of the molar value.
Reported pIC50 values for the following molecules.

Some solved entries appear below for comparison.
[
  {
    "molecule": "COC[C@H](c1ccc2nc(C(NC(=O)c3nonc3C3CC3)[C@@H](C)O[C@H](C)C(F)(F)F)[nH]c2c1F)N1C[C@@H](C(F)(F)F)NC1=O (single isomer, unassigned) [Example 94]",
    "pIC50": "> 7.30"
  },
  {
    "molecule": "COC[C@H](c1ccc2nc(C(NC(=O)c3nonc3C3CC3)[C@@H](C)O[C@H](C)C(F)(F)F)[nH]c2c1F)N1C[C@@H](C(F)(F)F)NC1=O (single isomer, unassigned) [Example 95]",
    "pIC50": "> 7.30"
  },
  {
    "molecule": "COC[C@H](c1ccc2nc(C(NC(=O)c3nonc3C)[C@@H](C)O[C@H](C)C(F)(F)F)[nH]c2c1F)N1C[C@@H](C(F)(F)F)NC1=O (single isomer, unassigned) [Example 97]",
    "pIC50": "> 7.30"
  },
  {
    "molecule": "Cc1nonc1C(=O)N[C@@H](COC(C)(C)C(F)(F)F)c1nc2cc([C@@H](C3CC3)N3C[C@@H](C(C)C)NC3=O)ccc2[nH]1",
    "pIC50": "> 7.30"
  }
]

Now, please, on to the next molecule.
[Q] Give the measured pIC50 of COC[C@H](c1ccc2nc(C(NC(=O)c3nonc3C)[C@@H](C)O[C@H](C)C(F)(F)F)[nH]c2c1F)N1C[C@@H](C(F)(F)F)NC1=O (single isomer, unassigned) [Example 96] .
[A] 7.00 to 7.30

###

# Test system: IL-17A-induced G-CSF production in human normal keratinocyte (NHK)
# measurement-description: NHK Assay: IL-17A-induced G-CSF production in human normal keratinocyte
# Assay type: cell-based
# measurement-conditions: Homo sapiens, Keratinocyte, 24 h, IL-17A 5 ng/mL, simple average if tested more than once
endpoint-name: IC50

[
  {
    "compound": "Cc1nonc1C(=O)N[C@@H](COC(C)(C)C(F)(F)F)c1nc2cc([C@@H](C)N3CC(F)(F)CNC3=O)ccc2[nH]1 (relative stereo)",
    "IC50": "< 50 nM"
  },
  {
    "compound": "[2H]C1([2H])[C@@H](C(F)(F)F)NC(=O)N1[C@@H](c1ccc2[nH]c([C@@H](NC(=O)c3nonc3C)[C@@H](C)O[C@H](C)C(F)(F)F)nc2c1)C1CC1 (relative stereo)",
    "IC50": "< 50 nM"
  }
]

Now, please, on to the next compound.
[Q] Give the measured IC50 of [2H]C1([2H])[C@@H](C(F)(F)F)NC(=O)N1[C@H](COC1CC1)c1ccc2[nH]c([C@H](COC(C)(C)C(F)(F)F)NC(=O)c3nonc3C)nc2c1 (relative stereo) .
[A] < 50 nM

###

# Tested on: IL-17A-induced G-CSF production in human normal keratinocyte (NHK)
# measurement-description: NHK Assay: IL-17A-induced G-CSF production in human normal keratinocyte
# Format: cell-based
# measurement-conditions: Homo sapiens, Keratinocyte, 24 h, IL-17A 5 ng/mL, simple average if tested more than once
pIC50: −log10 of the molar value.
Reported pIC50 values for the following compounds.

Some solved entries appear below for comparison.
[
  {
    "compound": "Cc1nonc1C(=O)N[C@@H](COC(C)(C)C(F)(F)F)c1nc2cc([C@@H](C3CC3)N3CC4(CC4)NC3=O)ccc2[nH]1 [Example 87]",
    "pIC50": "> 7.30"
  },
  {
    "compound": "COC[C@H](c1ccc2[nH]c(C(NC(=O)c3nonc3C)[C@@H](C)OC(C)(C)C(F)(F)F)nc2c1)N1C[C@@H](C(F)(F)F)NC1=O (single isomer, unassigned) [Example 74]",
    "pIC50": "> 7.30"
  },
  {
    "compound": "[2H]C1([2H])N([C@@H](c2ccc3nc([C@H](COC(C)(C)C(F)(F)F)NC(=O)c4nonc4C)[nH]c3c2)C2CC2)C(=O)NCC1(F)F [Example 77]",
    "pIC50": "> 7.30"
  },
  {
    "compound": "COC[C@H](c1ccc2[nH]c(C(NC(=O)c3nonc3C)[C@@H](C)O[C@H](C)C(F)(F)F)nc2n1)N1CC(F)(F)CNC1=O (single isomer, unassigned) [Example 21]",
    "pIC50": "> 7.30"
  },
  {
    "compound": "CC(C)(OC[C@@H](NC(=O)c1nonc1C1CC1)c1nc2cc(CN3C[C@@H](C(F)(F)F)NC3=O)ccc2[nH]1)C(F)(F)F (single isomer, unassigned) [Example 16]",
    "pIC50": "< 7.00"
  },
  {
    "compound": "CC(C)(OC[C@H](NC(=O)c1nonc1C1CC1)c1nc2cc(CN3CC(C(F)(F)F)NC3=O)ccc2[nH]1)C(F)(F)F (stereo in doubt) [Example 33]",
    "pIC50": "< 7.00"
  }
]

[Q] Provide the documented pIC50 with IL-17A-induced G-CSF production in human normal keratinocyte (NHK) as the system for Cc1nonc1C(=O)N[C@@H](COC(C)(C)C(F)(F)F)c1nc2cc(CN3C[C@@](C)(C(F)(F)F)NC3=O)ccc2[nH]1 (relative stereo) [Example 58]
[A] > 7.30

[Q] Provide the documented pIC50 with IL-17A-induced G-CSF production in human normal keratinocyte (NHK) as the system for Cc1nonc1C(=O)N[C@@H](COC(C)(C)C(F)(F)F)c1nc2cc([C@@H](C3CC3)N3C[C@@H](C(C)C)NC3=O)ccc2[nH]1 [Example 83]
[A] > 7.30

###

# Tested on: IL-17A-induced G-CSF production in human normal keratinocyte (NHK)
# measurement-description: NHK Assay: IL-17A-induced G-CSF production in human normal keratinocyte
# Assay type: cell-based
# measurement-conditions: Homo sapiens, Keratinocyte, 24 h, IL-17A 5 ng/mL, simple average if tested more than once
pIC50: −log10 of the molar value.
endpoint-name: pIC50

[
  {
    "molecule": "[2H]C1([2H])[C@H](C(F)(F)F)NC(=O)N1[C@H](COC)c1ccc2[nH]c([C@H](COC(C)(C)C(F)(F)F)NC(=O)c3nonc3C)nc2c1 (relative stereo)",
    "reported-value": "> 7.30"
  },
  {
    "molecule": "CC(C)n1nccc1C(=O)N[C@@H](COC(C)(C)C(F)(F)F)c1nc2ccc(CN3CC(F)(F)CNC3=O)cc2[nH]1",
    "reported-value": "> 7.30"
  },
  {
    "molecule": "[2H]C1([2H])NC(=O)N([C@@H](c2ccc3[nH]c([C@H](COC(C)(C)C(F)(F)F)NC(=O)c4ccnn4C(C)C)nc3c2)C2CC2)C([2H])([2H])C1(F)F",
    "reported-value": "> 7.30"
  },
  {
    "molecule": "Cc1nonc1C(=O)NC(COC(C)(C)C(F)(F)F)c1nc2cc([C@@H](COC3CC3)N3C[C@@H](C(F)(F)F)NC3=O)ccc2[nH]1 (single isomer, unassigned)",
    "reported-value": "> 7.30"
  },
  {
    "molecule": "C[C@H](O[C@H](C)C(NC(=O)c1ccnn1C)c1nc2cc([C@@H](C3CC3)N3C[C@@H](C(F)(F)F)NC3=O)ccc2[nH]1)C(F)(F)F (single isomer, unassigned)",
    "reported-value": "> 7.30"
  }
]

[Q] Give the measured pIC50 of Cc1nonc1C(=O)NC(c1nc2cc([C@@H](C3CC3)N3C[C@@H](C(F)(F)F)NC3=O)ccc2[nH]1)[C@@H](C)O[C@H](C)C(F)(F)F (single isomer, unassigned) .
[A] > 7.30

[Q] Give the measured pIC50 of `[2H]C1([2H])NC(=O)N([C@@H](c2ccc3[nH]c([C@H](COC(C)(C)C(F)(F)F)NC(=O)c4nonc4C4CC4)nc3c2)C2CC2)CC1(F)F` .
[A] > 7.30

[Q] Give the measured pIC50 of COC[C@H](c1ccc2nc(C(NC(=O)c3nonc3C3CC3)[C@@H](C)O[C@H](C)C(F)(F)F)[nH]c2c1F)N1C[C@@H](C(F)(F)F)NC1=O (single isomer, unassigned) .
[A] > 7.30

[Q] Give the measured pIC50 of `CC(C)n1ncc(F)c1C(=O)N[C@H](c1nc2cc([C@@H](COC3CC3)N3CC(F)(F)CNC3=O)ccc2[nH]1)[C@@H](C)OC1CC1` .
[A] 7.00 to 7.30

[Q] Give the measured pIC50 of `C[C@@H](O[C@H](C)C(F)(F)F)[C@H](NC(=O)c1nonc1C1CC1)c1nc2ccc(CN3C[C@@H](C(F)(F)F)NC3=O)c(F)c2[nH]1` .
[A] > 7.30

[Q] Give the measured pIC50 of [2H]C1([2H])[C@@H](C(F)(F)F)NC(=O)N1[C@@H](c1ccc2[nH]c([C@@H](NC(=O)c3nonc3C)[C@@H](C)O[C@@H](C)C(F)(F)F)nc2c1)C1CC1 (single isomer, unassigned) .
[A] < 7.00
